Below, each entry is listed alongside its reported hERG current change (%, negative = inhibition) at 10uM.
TESTED TARGET: human ether-à-go-go-related gene (hERG) potassium channel (human);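 further: peak tail current of the secondary pulse compared with the same well before compound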
Sequence (Q12809 whole entry, looked up): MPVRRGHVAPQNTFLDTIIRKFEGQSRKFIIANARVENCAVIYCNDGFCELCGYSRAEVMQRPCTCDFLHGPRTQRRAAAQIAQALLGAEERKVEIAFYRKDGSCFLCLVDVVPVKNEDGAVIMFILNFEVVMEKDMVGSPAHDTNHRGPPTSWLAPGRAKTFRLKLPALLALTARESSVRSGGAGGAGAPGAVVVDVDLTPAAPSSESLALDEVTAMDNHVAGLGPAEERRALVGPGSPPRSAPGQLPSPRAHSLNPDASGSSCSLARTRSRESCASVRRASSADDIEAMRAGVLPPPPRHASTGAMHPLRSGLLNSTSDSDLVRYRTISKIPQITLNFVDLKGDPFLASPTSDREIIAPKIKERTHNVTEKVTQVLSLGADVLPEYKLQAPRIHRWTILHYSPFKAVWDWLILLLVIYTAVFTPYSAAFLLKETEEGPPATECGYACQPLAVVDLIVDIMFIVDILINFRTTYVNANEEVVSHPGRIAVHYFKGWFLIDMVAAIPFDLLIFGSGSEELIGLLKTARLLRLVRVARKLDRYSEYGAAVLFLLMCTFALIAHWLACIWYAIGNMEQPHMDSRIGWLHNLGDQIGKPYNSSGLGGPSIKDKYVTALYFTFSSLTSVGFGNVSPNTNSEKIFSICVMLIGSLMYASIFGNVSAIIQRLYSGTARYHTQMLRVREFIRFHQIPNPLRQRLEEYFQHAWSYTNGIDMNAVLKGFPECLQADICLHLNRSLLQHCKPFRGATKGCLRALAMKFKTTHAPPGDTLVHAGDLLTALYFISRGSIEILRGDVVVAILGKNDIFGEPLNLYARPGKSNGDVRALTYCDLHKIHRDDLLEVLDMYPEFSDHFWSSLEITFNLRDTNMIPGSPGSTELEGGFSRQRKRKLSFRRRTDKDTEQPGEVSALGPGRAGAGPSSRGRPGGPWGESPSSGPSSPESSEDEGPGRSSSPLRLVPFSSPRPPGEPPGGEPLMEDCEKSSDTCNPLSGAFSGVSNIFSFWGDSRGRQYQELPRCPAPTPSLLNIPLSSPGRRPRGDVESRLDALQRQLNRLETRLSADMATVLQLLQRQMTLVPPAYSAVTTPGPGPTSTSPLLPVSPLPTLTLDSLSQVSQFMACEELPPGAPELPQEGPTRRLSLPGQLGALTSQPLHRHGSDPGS
ASSAY METHOD TEXT: primary screen, population patch clamp on CHO cells stably expressing hERG; higher = less effect of the substance
In all, about 310,000 compounds went through this assay and about 14,000 (4.5%) showed an effect of 50% or more. The effect is printed as a negative number. Only a selection was taken, and strong results are over-represented in it overall.
Respond numerically; units are % and should not be typed.

Solved entries:
COMPOUND: Cc1cc(C)n(CCn2nc(C)cc2C)n1
MEASURE UNIT: %
MEASUREMENT: 4.43
//
COMPOUND: CCC1CCCCN1CCCNC(=O)Cn1c(=O)c2cccn2c2cccnc21 (stereo not shown)
MEASURE UNIT: %
MEASUREMENT: 12.1
//
COMPOUND: O=C1C[C@H](NC(=O)OCc2ccccc2)CO1
MEASURE UNIT: %
MEASUREMENT: 6.32
//
COMPOUND: COC(=O)c1ccc(Cn2nc(-c3ccc(C)cc3)ccc2=O)cc1
MEASURE UNIT: %
MEASUREMENT: 23.5
//
COMPOUND: Cc1nnc2ccc(-c3cccc(NC(=O)c4ccco4)c3)nn12
MEASURE UNIT: %
MEASUREMENT: -5.08

Value of measured hERG current change (%, negative = inhibition) at 10uM for the entry Cc1ccc(C)c(N2CCN(CCCNC(=O)Cn3c(=O)c4cccn4c4cccnc43)CC2)c1 : -59.6

Value of measured hERG current change (%, negative = inhibition) at 10uM for the entry CC1CCCN(S(=O)(=O)c2ccc(CN3C(=O)c4cccnc4C3=O)cc2)C1 (stereo not shown) : -58

Value of measured hERG current change (%, negative = inhibition) at 10uM for the entry COC(=O)NNC(=O)c1ccc(Cl)cc1Cl : 19.8

Value of measured hERG current change (%, negative = inhibition) at 10uM for the entry NC(=O)C(c1ccccc1)c1ccc(C(=O)c2ccccc2)cc1 (stereo not shown) : 3.08

Value of measured hERG current change (%, negative = inhibition) at 10uM for the entry CC1CCCC(C)N1CCCNC(=O)CCn1c(=O)c2cccn2c2cccnc21 (stereo not shown) : 16.7

Value of measured hERG current change (%, negative = inhibition) at 10uM for the entry COc1ccc(OC)c(NC(=O)c2cnc(Nc3ccccc3OC)c3ccccc23)c1 : -7.53

Value of measured hERG current change (%, negative = inhibition) at 10uM for the entry CC1CCN(S(=O)(=O)c2cc(F)ccc2CN2C(=O)c3cccnc3C2=O)CC1 : -60.4

Value of measured hERG current change (%, negative = inhibition) at 10uM for the entry Cc1ccc(C)c(N2CCN(CCCNC(=O)CCn3c(=O)c4cccn4c4cccnc43)CC2)c1 : -70

Value of measured hERG current change (%, negative = inhibition) at 10uM for the entry CN(C)CCn1c2c(c(SCC(=O)Nc3ccccc3C(F)(F)F)nc1=O)CCCC2 : -18.4

Value of measured hERG current change (%, negative = inhibition) at 10uM for the entry Cc1cccc(NC(=O)CSc2nc(=O)n(CCN3CCOCC3)c3c2CCCC3)c1C : -23.6

Value of measured hERG current change (%, negative = inhibition) at 10uM for the entry CCN(CC)CCCn1c2c(c(SCC(=O)Nc3cc(C)on3)nc1=O)CCC2 : -2.43

Value of measured hERG current change (%, negative = inhibition) at 10uM for the entry CC1CCCC(C)N1CCCNC(=O)Cn1c(=O)c2cccn2c2cccnc21 (stereo not shown) : 2.77

Value of measured hERG current change (%, negative = inhibition) at 10uM for the entry COc1ccc(C(=O)NC(=S)Nc2cccnc2)cc1[N+](=O)[O-] : 4.69

Value of measured hERG current change (%, negative = inhibition) at 10uM for the entry COC(=O)c1c(C(=O)OC)c2cc(C)ccn2c1Cl : -24.9

Value of measured hERG current change (%, negative = inhibition) at 10uM for the entry CC(=O)NN1C(=O)/C(=C/c2ccc(Br)o2)SC1=S : 2.1

Value of measured hERG current change (%, negative = inhibition) at 10uM for the entry COc1ccc(S(=O)(=O)Nc2ccc3c(c2)n(C)c(=O)n3C)cc1C : 2.39

Value of measured hERG current change (%, negative = inhibition) at 10uM for the entry CCN(CC)CCCn1c2c(c(SCC(=O)N3CCCc4ccccc43)nc1=O)CCC2 : -22.9

Value of measured hERG current change (%, negative = inhibition) at 10uM for the entry CCN(CC)CCCn1c2c(c(SCC(=O)Nc3cccc(C)c3C)nc1=O)CCC2 : -55.3

Value of measured hERG current change (%, negative = inhibition) at 10uM for the entry CN(C)CCn1c2c(c(SCC(=O)N3CCc4ccccc43)nc1=O)CCCC2 : -44.7

Value of measured hERG current change (%, negative = inhibition) at 10uM for the entry Cn1c(=O)n(C)c2cc(NC(=O)CSc3ccccc3)ccc21 : 4.01

Value of measured hERG current change (%, negative = inhibition) at 10uM for the entry CC1CSc2nnc(CCc3ccccc3)n21 (stereo not shown) : 8.26

Value of measured hERG current change (%, negative = inhibition) at 10uM for the entry COc1ccc(NC(=O)CNc2cc(C)ccc2C)cc1S(=O)(=O)N1CCOCC1 : -8.85

Value of measured hERG current change (%, negative = inhibition) at 10uM for the entry CCOC(=O)c1ccc(COC(=O)CCc2nc(-c3ccccc3)c(-c3ccccc3)o2)cc1 : 1.13

###

TESTED TARGET: human ether-à-go-go-related gene (hERG) potassium channel (human);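 further: peak tail current of the secondary pulse compared with the same well before compound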
ASSAY METHOD TEXT: primary screen, population patch clamp on CHO cells stably expressing hERG; higher = less effect of the substance
About 14,000 (4.5%) of roughly 310,000 compounds showed an effect of 50% or more. The effect is printed as a negative number. The sample holds strong results, similar compounds and a random draw of the others, so the mix is not that of the screen.
MEASURED METRIC: hERG current change (%, negative = inhibition) at 10uM

Value of measured hERG current change (%, negative = inhibition) at 10uM for the entry Cc1ccc(NC(=O)CCNC(=O)c2ccccc2Cl)cc1S(=O)(=O)N1CCOCC1 : -8.82%

Value of measured hERG current change (%, negative = inhibition) at 10uM for the entry COc1ccc(NC(=O)c2cc([N+](=O)[O-])ccc2N2CCNCC2)cc1 : -44.5%

Value of measured hERG current change (%, negative = inhibition) at 10uM for the entry CCN(CC)CCn1c(=S)[nH]c2ncccc2c1=O : -20.5%

Value of measured hERG current change (%, negative = inhibition) at 10uM for the entry Cc1cc(C(=O)N2CCCC(N3CCN(c4ccccc4C)CC3)C2)n(C)n1 (stereo not shown) : -88.8%

Value of measured hERG current change (%, negative = inhibition) at 10uM for the entry COc1ccc(Br)cc1/C(C)=N/NC1=NCCN1.Cl : -26.7%

Value of measured hERG current change (%, negative = inhibition) at 10uM for the entry CCN(CC)CCCn1c(=S)[nH]c2cc(OC)c(OC)cc2c1=O : -2.6%

Value of measured hERG current change (%, negative = inhibition) at 10uM for the entry O=C(COc1ccccc1Cl)NCCNC(=O)c1cccnc1 : -3.71%

Value of measured hERG current change (%, negative = inhibition) at 10uM for the entry O=C(NC(=S)Nc1ccccc1)c1cc([N+](=O)[O-])ccc1N1CCOCC1 : 6.13%

Value of measured hERG current change (%, negative = inhibition) at 10uM for the entry CCOc1ccc(C(=O)CCC(=O)Nc2ncccc2O)cc1 : 5.51%

Value of measured hERG current change (%, negative = inhibition) at 10uM for the entry CN1CCN(c2ccc([N+](=O)[O-])cc2C(=O)Nc2ccccc2)CC1 : -71.1%

Value of measured hERG current change (%, negative = inhibition) at 10uM for the entry CCN(CC)CCn1c(=S)[nH]c2cc3c(cc2c1=O)OCO3 : -24.2%

Value of measured hERG current change (%, negative = inhibition) at 10uM for the entry O=C1NN(c2cccc(Br)c2)C(=O)/C1=C\c1ccc(O)cc1 : 12%

Value of measured hERG current change (%, negative = inhibition) at 10uM for the entry COc1ccc(NC(=O)c2cc([N+](=O)[O-])ccc2N2CCN(C)CC2)cc1 : -43.4%

Value of measured hERG current change (%, negative = inhibition) at 10uM for the entry CCN(CC)CCn1c(=S)[nH]c2ccccc2c1=O : -25.6%

Value of measured hERG current change (%, negative = inhibition) at 10uM for the entry O=c1c(Cc2ccc(F)cc2)c(O)ccn1Cc1ccc(Cl)cc1Cl : 6.08%

Value of measured hERG current change (%, negative = inhibition) at 10uM for the entry CCN(CC)CCn1c(=S)[nH]c2ccc(Br)cc2c1=O : -66.7%

From: paper PMC4336329
